ASSAY PROCEDURE: ATG_CRE_CIS: Attagene CIS-FACTORIAL HepG2 Assay for human cAMP Responsive Element (CRE) binding protein 3 (AID 2282926)
EXPERIMENTAL CONTEXT: HepG2 CRE cis-reporter, Attagene multiplexed mRNA; actives raise or lower the signal
Activity calls are given as the source filed them. The calls were made as follows: active = hit-call score of the fitted dose curve at least 0.9, where 1 is the maximum; inactive = score below 0.9.
Hi! Could you answer with just one of these? active, inactive

Recorded call for CCc1ccc(C(=O)NN(C(=O)c2cc(C)cc(C)c2)C(C)(C)C)cc1 ?
inactive

Recorded call for CC(C)OC(=O)Nc1cccc(Cl)c1 ?
active

Recorded call for CCOCN(C(=O)CCl)c1c(C)cccc1CC ?
inactive

Recorded call for CCCN(CCOc1c(Cl)cc(Cl)cc1Cl)C(=O)n1ccnc1 ?
inactive

Recorded call for Cc1cc(C)nc(NC(=O)NS(=O)(=O)c2ccccc2C(=O)OC2COC2)n1 ?
inactive

Recorded call for O=C(O)COc1ccc(Cl)cc1Cl ?
inactive

###

Read-out: growth arrest and DNA damage 45 (GADD45A), GADD45A (gene 1647)
ASSAY PROCEDURE: LTEA_HepaRG_GADD45A: Life Technologies and Expression Analysis (LTEA) Assay for growth arrest and DNA damage 45 (GADD45A) using HepaRG (AID 2283458)
EXPERIMENTAL CONTEXT: mRNA level, 48 h; actives raise or lower the signal
Calls of active or inactive are those of the source. The calls were made as follows: active = hit-call score of the fitted dose curve at least 0.9, where 1 is the maximum; inactive = score below 0.9.
Hi! Could you answer with just one of these? active, inactive

Recorded call for N#CN ?
inactive

Recorded call for O=[N+]([O-])c1c(Cl)c(Cl)c(Cl)c(Cl)c1Cl ?
inactive

Recorded call for O=S(=O)(O)C(F)(F)C(F)(F)C(F)(F)C(F)(F)C(F)(F)C(F)(F)C(F)(F)C(F)(F)F ?
inactive

Recorded call for CC(C)N(C(=O)COc1nnc(C(F)(F)F)s1)c1ccc(F)cc1 ?
inactive

Recorded call for CNC(=O)CSP(=S)(OC)OC ?
inactive

Recorded call for O=C(O)COc1ccc(Cl)cc1Cl ?
inactive

Recorded call for CC1(C)C(C=C(Cl)Cl)C1C(=O)OC(C#N)c1ccc(F)c(Oc2ccccc2)c1 (configuration not stated) ?
inactive

Recorded call for CCN(CC)C(=O)SCc1ccc(Cl)cc1 ?
inactive

Recorded call for O=C(Nc1ccccc1)Nc1cnns1 ?
inactive

Recorded call for O=C(NC(=O)c1c(F)cccc1F)Nc1ccc(OC(F)(F)C(F)OC(F)(F)F)c(Cl)c1 (configuration not stated) ?
inactive

Recorded call for CCCN(CCOc1c(Cl)cc(Cl)cc1Cl)C(=O)n1ccnc1 ?
active

Recorded call for CC1(c2ccc(Oc3ccccc3)cc2)OC(=O)N(Nc2ccccc2)C1=O (configuration not stated) ?
active

Recorded call for CNC(=O)Oc1ccccc1OC(C)C ?
inactive

Recorded call for CCC(C)(NC(=O)c1cc(Cl)c(C)c(Cl)c1)C(=O)CCl (configuration not stated) ?
active

Recorded call for C#CCN1C(=O)COc2cc(F)c(N3C(=O)C4=C(CCCC4)C3=O)cc21 ?
inactive

Recorded call for O=C(O)C(F)(F)C(F)(F)C(F)(F)C(F)(F)C(F)(F)C(F)(F)C(F)(F)F ?
inactive

Recorded call for CCOCN(C(=O)CCl)c1c(C)cccc1CC ?
inactive

Recorded call for CC(C)OC(=O)Nc1cccc(Cl)c1 ?
active

Recorded call for O=[N+]([O-])/N=C1\NCCN1Cc1ccc(Cl)nc1 ?
active

Recorded call for CNC(=O)/C=C(\C)OP(=O)(OC)OC ?
inactive

Recorded call for O=C1c2ccccc2C(=O)N1SC(Cl)(Cl)Cl ?
inactive

Recorded call for Cc1[nH]c(=O)n(C(C)(C)C)c(=O)c1Cl ?
inactive

Recorded call for CC[C@H](C)[C@H]1O[C@]2(C=C[C@@H]1C)C[C@@H]1C[C@@H](C/C=C(\C)[C@@H](O[C@H]3C[C@H](OC)[C@@H](O[C@H]4C[C@H](OC)[C@@H](O)[C@H](C)O4)[C@H](C)O3)[C@@H](C)/C=C/C=C3\CO[C@@H]4[C@H](O)C(C)=C[C@@H](C(=O)O1)[C@]34O)O2 (tested in a mixture with another compound) ?
inactive

Recorded call for COP(=S)(OC)Oc1ccc(SC)c(C)c1 ?
inactive

Recorded call for ClC1C(Cl)C(Cl)C(Cl)C(Cl)C1Cl (configuration not stated) ?
inactive

Recorded call for COc1nn(CSP(=S)(OC)OC)c(=O)s1 ?
inactive

Recorded call for O=S1OCC2C(CO1)C1(Cl)C(Cl)=C(Cl)C2(Cl)C1(Cl)Cl (configuration not stated) ?
inactive

Recorded call for CCc1ccc(C(=O)NN(C(=O)c2cc(C)cc(C)c2)C(C)(C)C)cc1 ?
inactive

Recorded call for O=C(O)CCCOc1ccc(Cl)cc1Cl ?
inactive

Recorded call for Oc1ccc(Cl)cc1Cc1ccccc1 ?
inactive

Recorded call for COP(=S)(OC)Oc1ccc([N+](=O)[O-])cc1 ?
inactive

Recorded call for CCC(C)(C)C(=O)OC1=C(c2ccc(Cl)cc2Cl)C(=O)OC12CCCCC2 ?
inactive
